Source: ChEMBL document CHEMBL4138066

Hi there, I'd appreciate the recorded inhibition at 0.25 h, 100 µM for every entry that follows.
- testedSystem: UniProt:P21397
- protocolDescription: Inhibition of human MAOA at 100 uM incubated for 15 mins using p-tyramine substrate by Amplex red reagent based fluorescence assay
- conditionDetails: human MAOA enzyme, probe p-tyramine
Give a bare numeral; the unit % is implied.

Give the measured inhibition at 0.25 h, 100 µM of `Cc1ccc(COc2cccc(Br)c2)cc1` .
24

Follow-up item: `Brc1cccc(COc2cccc(Br)c2)c1`
27

Follow-up item: `COc1cccc(OCc2ccc(Br)cc2)c1`
25

Follow-up item: `Cc1cccc(COc2cccc(Br)c2)c1`
43

Follow-up item: `Fc1cccc(COc2cccc(Br)c2)c1`
37

Follow-up item: `COc1cccc(OCc2ccc(C)cc2)c1`
26

Follow-up item: `COc1cccc(OCc2ccc(F)cc2)c1`
22

###

- testedSystem: Amine oxidase [flavin-containing] A (Homo sapiens)
- Sequence (P21397 whole entry): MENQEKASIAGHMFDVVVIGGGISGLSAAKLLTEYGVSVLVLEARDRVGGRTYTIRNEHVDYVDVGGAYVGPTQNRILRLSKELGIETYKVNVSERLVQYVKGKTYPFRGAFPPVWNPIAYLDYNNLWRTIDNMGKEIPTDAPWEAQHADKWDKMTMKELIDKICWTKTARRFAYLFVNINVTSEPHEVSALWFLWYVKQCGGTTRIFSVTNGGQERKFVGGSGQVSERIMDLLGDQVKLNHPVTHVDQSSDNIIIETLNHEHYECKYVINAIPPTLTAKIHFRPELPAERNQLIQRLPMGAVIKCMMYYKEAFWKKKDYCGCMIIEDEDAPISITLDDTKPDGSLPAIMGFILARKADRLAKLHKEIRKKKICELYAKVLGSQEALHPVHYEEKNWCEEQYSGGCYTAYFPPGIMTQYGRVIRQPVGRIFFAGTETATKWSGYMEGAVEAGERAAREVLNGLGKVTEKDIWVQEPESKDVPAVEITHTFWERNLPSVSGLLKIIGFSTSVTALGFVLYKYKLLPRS
Hi there, I'd appreciate the recorded pIC50 for every entry that follows.
pIC50 here: minus log base 10 of the concentration, concentration in moles per litre.

Value wanted: pIC50 (Amine oxidase [flavin-containing] A (Homo sapiens)) of entry `O=Cc1cccc(OCc2ccc(Br)cc2)c1`
4.55

Follow-up item: `O=Cc1cccc(OCc2ccc(F)cc2)c1`
4.37

Follow-up item: `Cc1ccc(COc2cccc(C=O)c2)cc1`
4.19

Follow-up item: `O=Cc1cccc(OCc2cccc(Br)c2)c1`
4.55

###

- Organism: Homo sapiens
- protocolDescription: Selectivity index, ratio of IC50 for human MAOA to IC50 for human MAOB
Hi there, I'd appreciate the recorded Ratio IC50 for every entry that follows.

Give the measured Ratio IC50 of `O=Cc1cccc(OCc2ccc(F)cc2)c1` .
45.7

Follow-up item: `COc1cccc(OCc2ccc(Br)cc2)c1`
> 11.6

Follow-up item: `Cc1cccc(COc2cccc(C=O)c2)c1`
17.7

Follow-up item: `Cc1ccc(COc2cccc(C=O)c2)cc1`
25.6

Follow-up item: `COc1cccc(OCc2ccc(F)cc2)c1`
> 6.4

Follow-up item: `COc1cccc(OCc2cccc(F)c2)c1`
> 8.1

Follow-up item: `COc1cccc(OCc2ccccc2)c1`
> 6.3

Follow-up item: `O=Cc1cccc(OCc2ccccc2)c1`
23.3

Follow-up item: `COc1cccc(OCc2cccc(C)c2)c1`
> 9.2

Follow-up item: `Brc1cccc(OCc2ccccc2)c1`
> 36.6

Follow-up item: `O=Cc1cccc(OCc2cccc(F)c2)c1`
53.1

Follow-up item: `Cc1cccc(COc2cccc(Br)c2)c1`
> 50.5

Follow-up item: `COc1cccc(OCc2cccc(Br)c2)c1`
> 5.2

Follow-up item: `Cc1ccc(COc2cccc(Br)c2)cc1`
> 65.4

Follow-up item: `Fc1ccc(COc2cccc(Br)c2)cc1`
> 172

Follow-up item: `Fc1cccc(COc2cccc(Br)c2)c1`
> 94.3

Follow-up item: `O=Cc1cccc(OCc2cccc(Br)c2)c1`
53.2

Follow-up item: `COc1cccc(OCc2ccc(C)cc2)c1`
> 6.8

Follow-up item: `Brc1cccc(COc2cccc(Br)c2)c1`
> 132

###

- testedSystem: MAO-A (amine oxidase [flavin-containing] A) (Homo sapiens, UniProt P21397)
- Sequence (P21397 whole entry): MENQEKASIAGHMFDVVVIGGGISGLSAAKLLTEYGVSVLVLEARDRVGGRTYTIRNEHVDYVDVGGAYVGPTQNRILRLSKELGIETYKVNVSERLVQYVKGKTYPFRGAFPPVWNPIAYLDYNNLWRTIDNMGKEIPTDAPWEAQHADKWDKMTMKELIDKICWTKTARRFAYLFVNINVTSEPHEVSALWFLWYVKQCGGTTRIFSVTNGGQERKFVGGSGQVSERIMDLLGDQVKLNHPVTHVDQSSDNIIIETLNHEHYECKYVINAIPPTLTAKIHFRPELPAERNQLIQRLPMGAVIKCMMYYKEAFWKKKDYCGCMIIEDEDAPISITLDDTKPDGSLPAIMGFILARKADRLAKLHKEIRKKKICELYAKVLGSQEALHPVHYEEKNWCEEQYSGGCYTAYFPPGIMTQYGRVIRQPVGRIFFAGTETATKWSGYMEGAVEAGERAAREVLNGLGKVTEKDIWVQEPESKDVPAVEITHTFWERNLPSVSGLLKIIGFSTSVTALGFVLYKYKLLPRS
- protocolDescription: Inhibition of human MAOA at 100 uM incubated for 15 mins using p-tyramine substrate by Amplex red reagent based fluorescence assay
- conditionDetails: human MAOA enzyme, probe p-tyramine
Hi there, I'd appreciate the recorded inhibition at 0.25 h, 100 µM for every entry that follows.
Give a bare numeral; the unit % is implied.

Give the measured inhibition at 0.25 h, 100 µM of `COc1cccc(OCc2cccc(F)c2)c1` .
19

Follow-up item: `COc1cccc(OCc2cccc(C)c2)c1`
23

Follow-up item: `Fc1ccc(COc2cccc(Br)c2)cc1`
31

Follow-up item: `COc1cccc(OCc2cccc(Br)c2)c1`
22

Follow-up item: `Brc1cccc(OCc2ccccc2)c1`
23

Follow-up item: `COc1cccc(OCc2ccccc2)c1`
25

Follow-up item: `Brc1ccc(COc2cccc(Br)c2)cc1`
30

###

- testedSystem: Amine oxidase [flavin-containing] B (Homo sapiens)
- Sequence (P27338 whole entry): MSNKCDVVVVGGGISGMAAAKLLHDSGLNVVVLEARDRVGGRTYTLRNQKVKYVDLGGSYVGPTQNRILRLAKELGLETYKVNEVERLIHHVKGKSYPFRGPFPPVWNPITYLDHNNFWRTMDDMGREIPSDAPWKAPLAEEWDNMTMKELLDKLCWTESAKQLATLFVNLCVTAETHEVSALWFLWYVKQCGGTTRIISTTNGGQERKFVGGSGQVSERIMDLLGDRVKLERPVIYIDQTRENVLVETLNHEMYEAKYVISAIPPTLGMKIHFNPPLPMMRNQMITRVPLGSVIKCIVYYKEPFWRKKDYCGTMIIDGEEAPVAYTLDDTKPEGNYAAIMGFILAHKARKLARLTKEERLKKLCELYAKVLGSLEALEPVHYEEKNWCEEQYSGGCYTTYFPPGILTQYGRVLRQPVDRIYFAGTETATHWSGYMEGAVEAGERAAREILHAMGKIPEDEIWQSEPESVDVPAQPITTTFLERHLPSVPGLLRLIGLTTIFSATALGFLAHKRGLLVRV
endpointLabel: IC50 (µM)
Give a bare numeral; the unit µM is implied.

Give the measured IC50 of `Cc1cccc(COc2cccc(Br)c2)c1` .
1.98

Follow-up item: `COc1cccc(OCc2cccc(Br)c2)c1`
19.3

Follow-up item: `O=Cc1cccc(OCc2ccc(F)cc2)c1`
0.93

Follow-up item: `Fc1cccc(COc2cccc(Br)c2)c1`
1.06

Follow-up item: `COc1cccc(OCc2ccccc2)c1`
15.8

Follow-up item: `Brc1cccc(OCc2ccccc2)c1`
2.73

Follow-up item: `O=Cc1cccc(OCc2ccc(Br)cc2)c1`
0.19

Follow-up item: `COc1cccc(OCc2ccc(C)cc2)c1`
14.6
